B1: library; numbered along this chain (parent)
chain: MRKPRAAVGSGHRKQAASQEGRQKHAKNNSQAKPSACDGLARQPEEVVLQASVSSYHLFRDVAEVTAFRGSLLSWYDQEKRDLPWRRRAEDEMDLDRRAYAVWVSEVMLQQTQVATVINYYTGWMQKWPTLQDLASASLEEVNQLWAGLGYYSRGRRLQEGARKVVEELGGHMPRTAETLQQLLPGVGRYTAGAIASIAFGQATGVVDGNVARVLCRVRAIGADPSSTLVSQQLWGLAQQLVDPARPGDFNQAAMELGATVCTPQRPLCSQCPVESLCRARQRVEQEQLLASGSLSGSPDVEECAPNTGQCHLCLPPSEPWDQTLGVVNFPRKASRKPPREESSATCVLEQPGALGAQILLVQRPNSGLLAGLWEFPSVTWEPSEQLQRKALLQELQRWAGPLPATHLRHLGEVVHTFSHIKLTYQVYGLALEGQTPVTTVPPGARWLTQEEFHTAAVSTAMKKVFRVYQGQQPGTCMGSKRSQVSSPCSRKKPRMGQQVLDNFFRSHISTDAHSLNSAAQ

# Variants of: B1
# Assay: 8OG:A repair function score (normalized; synonymous = 0, nonsense = -1) (normalized log-likelihood score); higher = more repair activity (WT-like);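 also: cells sorted at 72 h after reporter transfection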
# Recorded conditions: with 8OG:A DNA repair reporter (GFP) in HEK-293 MUTYH KO cells
// classify(record): look up 8OG:A repair function score in ranges bin 1 (below -0.3), bin 2 (-0.3 to below -0.02), bin 3 (-0.02 or more)

// bin(item) where item = "K333P"
bin 3

// bin(item) where item = "L149S"
bin 1

// bin(item) where item = "V218F"
bin 1

// bin(item) where item = "A253T"
bin 1

// bin(item) where item = "F200M"
bin 3

The measured values listed here are drawn from the supplement of paper PMC11908140.
